Reference source: BindingDB's records for doi:10.1021/jm2013198

- TARGET_OF_ASSAY: P2Y purinoceptor 4 (Homo sapiens)
- Sequence (P51582 whole entry): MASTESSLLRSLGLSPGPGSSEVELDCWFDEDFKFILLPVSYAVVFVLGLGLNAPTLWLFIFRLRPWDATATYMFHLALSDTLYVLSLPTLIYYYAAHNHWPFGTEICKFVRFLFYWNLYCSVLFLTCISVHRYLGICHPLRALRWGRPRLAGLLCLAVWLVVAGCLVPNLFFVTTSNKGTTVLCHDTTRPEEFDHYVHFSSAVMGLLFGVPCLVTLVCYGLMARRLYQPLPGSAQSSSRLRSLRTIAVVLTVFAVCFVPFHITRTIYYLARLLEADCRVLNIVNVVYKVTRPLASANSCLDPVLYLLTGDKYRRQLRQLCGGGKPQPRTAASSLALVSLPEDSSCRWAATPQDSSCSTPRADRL
- ASSAY_PROCEDURE: Agonist activity at human P2Y purinoceptor 4 expressed in human 1321N1 cells assessed as increase in intracellular calcium concentration by spectrofluorimetry
PROPERTY_MEASURED: EC50 (µM)
Numeric only. Scale: µM

Look up EC50: BP(=O)(OC[C@H]1O[C@@H](n2ccc(=O)[nH]c2=O)[C@H](O)[C@@H]1O)OP(=O)(O)OP(=O)(O)OP(=O)(O)OC[C@H]1O[C@@H](n2ccc(=O)[nH]c2=O)[C@H](O)[C@@H]1O (stereo partly specified) 9.4

* * *

- TARGET_OF_ASSAY: P2Y purinoceptor 6 (Rattus norvegicus, UniProt Q63371)
- Sequence (Q63371 whole entry): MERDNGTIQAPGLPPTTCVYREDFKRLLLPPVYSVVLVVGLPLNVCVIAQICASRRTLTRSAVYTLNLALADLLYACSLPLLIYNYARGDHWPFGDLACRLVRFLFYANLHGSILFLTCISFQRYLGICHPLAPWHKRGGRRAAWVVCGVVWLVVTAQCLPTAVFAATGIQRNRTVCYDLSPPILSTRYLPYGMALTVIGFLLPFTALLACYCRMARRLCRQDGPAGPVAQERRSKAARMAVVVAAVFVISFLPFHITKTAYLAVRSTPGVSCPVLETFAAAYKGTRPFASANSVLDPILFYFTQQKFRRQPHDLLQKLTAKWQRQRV
- ASSAY_PROCEDURE: Agonist activity at rat P2Y purinoceptor 6 expressed in human 1321N1 cells assessed as increase in intracellular calcium concentration by spectrofluorimetry
PROPERTY_MEASURED: EC50 (µM)
Numeric only. Scale: µM

I'm curious: which EC50 was measured for BP(=O)(OP(=O)(O)OC[C@H]1O[C@@H](n2ccc(=O)[nH]c2=O)[C@H](O)[C@@H]1O)OP(=O)(O)OP(=O)(O)OC[C@H]1O[C@@H](n2ccc(=O)[nH]c2=O)[C@H](O)[C@@H]1O (stereo not given in full) tested on P2Y purinoceptor 6 (Rattus norvegicus, UniProt Q63371)? 1.93

I'm curious: which EC50 was measured for BP(=O)(OP(=O)(O)OC[C@H]1O[C@@H](n2ccc(=O)[nH]c2=O)[C@H](O)[C@@H]1O)OP(=O)(O)OP(=O)(O)OC[C@H]1O[C@@H](n2cnc3c(N)ncnc32)[C@H](O)[C@@H]1O (stereo not given in full) tested on P2Y purinoceptor 6 (Rattus norvegicus, UniProt Q63371)? 20.9

I'm curious: which EC50 was measured for BP(=O)(OC[C@H]1O[C@@H](n2ccc(=O)[nH]c2=O)[C@H](O)[C@@H]1O)OP(=O)(O)OP(=O)(O)OP(=O)(O)OC[C@H]1O[C@@H](n2ccc(=O)[nH]c2=O)[C@H](O)[C@@H]1O (stereo not given in full) tested on P2Y purinoceptor 6 (Rattus norvegicus, UniProt Q63371)? 36.1

I'm curious: which EC50 was measured for BP(=O)(OP(=O)(O)OC[C@H]1O[C@@H](n2cnc3c(N)ncnc32)[C@H](O)[C@@H]1O)OP(=O)(O)OP(=O)(O)OC[C@H]1O[C@@H](n2ccc(=O)[nH]c2=O)[C@H](O)[C@@H]1O (stereo not given in full) tested on P2Y purinoceptor 6 (Rattus norvegicus, UniProt Q63371)? 1.29

I'm curious: which EC50 was measured for BP(=O)(OC[C@H]1O[C@@H](n2ccc(=O)[nH]c2=O)[C@H](O)[C@@H]1O)OP(=O)(O)OP(=O)(O)OC[C@H]1O[C@@H](n2ccc(=O)[nH]c2=O)[C@H](O)[C@@H]1O (stereo not given in full) tested on P2Y purinoceptor 6 (Rattus norvegicus, UniProt Q63371)? 0.72

* * *

- TARGET_OF_ASSAY: P2Y purinoceptor 1 (Meleagris gallopavo)
- Sequence (P49652 whole entry): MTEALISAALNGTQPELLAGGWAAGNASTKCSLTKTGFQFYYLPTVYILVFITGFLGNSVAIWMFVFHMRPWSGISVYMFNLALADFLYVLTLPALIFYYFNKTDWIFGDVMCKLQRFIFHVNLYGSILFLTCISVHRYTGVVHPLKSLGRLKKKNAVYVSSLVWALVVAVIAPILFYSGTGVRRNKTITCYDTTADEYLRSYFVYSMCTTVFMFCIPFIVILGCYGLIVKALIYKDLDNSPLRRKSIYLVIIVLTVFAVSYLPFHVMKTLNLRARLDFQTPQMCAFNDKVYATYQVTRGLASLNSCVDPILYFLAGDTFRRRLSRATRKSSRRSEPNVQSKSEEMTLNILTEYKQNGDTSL
- ASSAY_PROCEDURE: Agonist activity at turkey P2Y purinoceptor 1 expressed in human 1321N1 cells assessed as increase in intracellular calcium concentration by spectrofluorimetry
PROPERTY_MEASURED: log10(EC50) (log10 of the value in nM)
Recorded EC50 (log10, nM)

Example compounds with recorded log10(EC50):
- BP(=O)(OC[C@H]1O[C@@H](n2cnc3c(N)ncnc32)[C@H](O)[C@@H]1O)OP(=O)(O)OP(=O)(O)OC[C@H]1O[C@@H](n2cnc3c(N)ncnc32)[C@H](O)[C@@H]1O (stereo not given in full): 2.90
- BP(=O)(OP(=O)(O)OC[C@H]1O[C@@H](n2cnc3c(N)ncnc32)[C@H](O)[C@@H]1O)OP(=O)(O)OP(=O)(O)OC[C@H]1O[C@@H](n2ccc(=O)[nH]c2=O)[C@H](O)[C@@H]1O (stereo not given in full): 3.84
- BP(=O)(OP(=O)(O)OC[C@H]1O[C@@H](n2cnc3c(N)ncnc32)[C@H](O)[C@@H]1O)OP(=O)(O)OP(=O)(O)OC[C@H]1O[C@@H](n2cnc3c(N)ncnc32)[C@H](O)[C@@H]1O (stereo not given in full): 3.48
- BP(=O)(OP(=O)(O)OC[C@H]1O[C@@H](n2ccc(=O)[nH]c2=O)[C@H](O)[C@@H]1O)OP(=O)(O)OP(=O)(O)OC[C@H]1O[C@@H](n2cnc3c(N)ncnc32)[C@H](O)[C@@H]1O (stereo not given in full): 2.70

Okay, next one:
Look up log10(EC50): BP(=O)(OC[C@H]1O[C@@H](n2cnc3c(N)ncnc32)[C@H](O)[C@@H]1O)OP(=O)(O)OP(=O)(O)OP(=O)(O)OC[C@H]1O[C@@H](n2cnc3c(N)ncnc32)[C@H](O)[C@@H]1O (stereo not given in full) 3.17

* * *

- TARGET_OF_ASSAY: UniProtKB P51582
- ASSAY_PROCEDURE: Agonist activity at human P2Y purinoceptor 4 expressed in human 1321N1 cells assessed as increase in intracellular calcium concentration by spectrofluorimetry
PROPERTY_MEASURED: EC50 (µM)
Numeric only. Scale: µM

Look up EC50: BP(=O)(OC[C@H]1O[C@@H](n2ccc(=O)[nH]c2=O)[C@H](O)[C@@H]1O)OP(=O)(O)OP(=O)(O)OP(=O)(O)OC[C@H]1O[C@@H](n2ccc(=O)[nH]c2=O)[C@H](O)[C@@H]1O (stereo partly specified) 9.4

* * *

- TARGET_OF_ASSAY: UniProtKB P41231
- Sequence (P41231 whole entry): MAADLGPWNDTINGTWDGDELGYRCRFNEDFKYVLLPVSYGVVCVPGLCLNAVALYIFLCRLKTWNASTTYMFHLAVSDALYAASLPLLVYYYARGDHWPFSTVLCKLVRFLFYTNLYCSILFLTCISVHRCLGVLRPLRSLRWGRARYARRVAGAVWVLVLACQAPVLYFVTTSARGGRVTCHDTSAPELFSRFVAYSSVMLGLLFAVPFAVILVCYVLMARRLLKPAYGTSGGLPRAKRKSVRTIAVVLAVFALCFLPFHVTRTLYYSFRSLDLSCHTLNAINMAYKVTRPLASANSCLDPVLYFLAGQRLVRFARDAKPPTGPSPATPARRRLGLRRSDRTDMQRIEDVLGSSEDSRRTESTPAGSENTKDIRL
- ASSAY_PROCEDURE: Agonist activity at human P2Y purinoceptor 2 expressed in human 1321N1 cells assessed as increase in intracellular calcium concentration by spectrofluorimetry
PROPERTY_MEASURED: pEC50
To interpret pEC50, take it as minus log10 of a concentration measured in moles per litre.

I'm curious: which pEC50 was measured for BP(=O)(OC[C@H]1O[C@@H](n2cnc3c(N)ncnc32)[C@H](O)[C@@H]1O)OP(=O)(O)OP(=O)(O)OP(=O)(O)OC[C@H]1O[C@@H](n2cnc3c(N)ncnc32)[C@H](O)[C@@H]1O (stereo partly specified) tested on UniProtKB P41231? 4.59
